The values you see were collected from ChEMBL document CHEMBL4316611.

Answer each item with its documented pIC50.
# Tested on: A549
# protocol-notes: Cytotoxicity in human A549 cells assessed as reduction in cell viability incubated for 48 hrs by MTT assay
# Assay type: functional, cell-based
# test-parameters: A549, 48 h
Give bare numbers, as −log10 of the molar value.

> print(dat)
                                  structure  recorded.measurement
1  C=CC[C@@H](Cc1c[nH]c2ccccc12)NS(=O)(=O)c1ccc(Cl)c(C(F)(F)F)c1                  4.46
2  C=CC[C@@H](Cc1c[nH]c2ccccc12)NS(=O)(=O)c1c(C)cc(C)cc1C                  4.39
3  C=CC[C@@H](Cc1c[nH]c2ccccc12)NS(=O)(=O)c1ccc(C(F)(F)F)cc1Cl                  4.28

Item: C=CC[C@@H](Cc1c[nH]c2ccccc12)NS(=O)(=O)c1ccc2ccccc2c1 | pIC50: 4.26
